The following compounds are listed with their measured disease control rating, Test B values.
# Test system: Puccinia recondita
# PROCEDURE DETAILS: Test B: wheat leaf rust disease control (wheat seedlings)
# Format: in vivo
# MEASUREMENT PARAMETERS: sprayed at 1000 to 2 ppm (rate not given per compound)
QUANTITY: disease control rating, Test B (%)

- COMPOUND: "Fc1ccc(COCC2CCN(Cc3ccccc3)CC2)cc1 [Example 205]"
  TARGET SYSTEM: "Puccinia recondita"
  QUANTITY: "disease control rating, Test B"
  UNIT INFO: "%"
  VALUE REPORTED: 35
- COMPOUND: "Fc1ccc(COCC2CCN(Cc3ccc(Cl)cc3)CC2)cc1"
  TARGET SYSTEM: "Puccinia recondita"
  QUANTITY: "disease control rating, Test B"
  UNIT INFO: "%"
  VALUE REPORTED: 72
- COMPOUND: "c1ccc(COCC2CCN(Cc3ccccc3)CC2)cc1"
  TARGET SYSTEM: "Puccinia recondita"
  QUANTITY: "disease control rating, Test B"
  UNIT INFO: "%"
  VALUE REPORTED: 0
- COMPOUND: "CCCCCCN1CCC(COCc2ccc(F)cc2)CC1"
  TARGET SYSTEM: "Puccinia recondita"
  QUANTITY: "disease control rating, Test B"
  UNIT INFO: "%"
  VALUE REPORTED: 27
- COMPOUND: "Fc1ccc(COCC2CCN(CCCc3ccccc3)CC2)cc1"
  TARGET SYSTEM: "Puccinia recondita"
  QUANTITY: "disease control rating, Test B"
  UNIT INFO: "%"
  VALUE REPORTED: 29
- COMPOUND: "COC(=O)c1ccc(CN2CCC(COCc3ccc(F)cc3)CC2)cc1"
  TARGET SYSTEM: "Puccinia recondita"
  QUANTITY: "disease control rating, Test B"
  UNIT INFO: "%"
  VALUE REPORTED: 96
- COMPOUND: "COc1ccc(COCC2CCN(Cc3ccccc3)CC2)cc1"
  TARGET SYSTEM: "Puccinia recondita"
  QUANTITY: "disease control rating, Test B"
  UNIT INFO: "%"
  VALUE REPORTED: 27
- COMPOUND: "Fc1ccc(COC2CCN(Cc3ccccc3)CC2)cc1"
  TARGET SYSTEM: "Puccinia recondita"
  QUANTITY: "disease control rating, Test B"
  UNIT INFO: "%"
  VALUE REPORTED: 52
- COMPOUND: "Oc1ccc(CN2CCC(COCc3ccc(F)cc3)CC2)cc1"
  TARGET SYSTEM: "Puccinia recondita"
  QUANTITY: "disease control rating, Test B"
  UNIT INFO: "%"
  VALUE REPORTED: 26
- COMPOUND: "Fc1ccc(COCC2CCN(Cc3ccc4ccccc4c3)CC2)cc1"
  TARGET SYSTEM: "Puccinia recondita"
  QUANTITY: "disease control rating, Test B"
  UNIT INFO: "%"
  VALUE REPORTED: 73
- COMPOUND: "Fc1ccc(COCC2CCN(Cc3ccccc3)CC2)cc1 [Example 181]"
  TARGET SYSTEM: "Puccinia recondita"
  QUANTITY: "disease control rating, Test B"
  UNIT INFO: "%"
  VALUE REPORTED: 37
